target: MAO-B (Homo sapiens)
Construct: purchased Merck
Sequence (P27338 whole entry): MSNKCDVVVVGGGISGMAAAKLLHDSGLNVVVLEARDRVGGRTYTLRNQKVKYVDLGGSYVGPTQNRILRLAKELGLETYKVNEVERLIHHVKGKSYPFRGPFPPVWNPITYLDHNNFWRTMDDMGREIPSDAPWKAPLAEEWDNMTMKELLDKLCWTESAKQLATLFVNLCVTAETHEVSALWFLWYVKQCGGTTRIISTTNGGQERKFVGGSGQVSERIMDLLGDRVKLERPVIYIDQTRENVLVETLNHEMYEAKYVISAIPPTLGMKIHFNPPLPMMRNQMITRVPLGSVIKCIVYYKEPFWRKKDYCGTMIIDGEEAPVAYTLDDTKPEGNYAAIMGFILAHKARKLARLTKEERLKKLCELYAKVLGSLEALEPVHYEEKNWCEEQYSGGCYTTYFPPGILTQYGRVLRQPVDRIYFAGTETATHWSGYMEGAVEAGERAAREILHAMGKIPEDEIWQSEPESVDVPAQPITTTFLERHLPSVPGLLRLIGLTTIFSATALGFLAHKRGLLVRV
procedure-summary: MAO-B inhibition, recombinant human enzyme, kynuramine substrate, fluorometric end-point
Assay type: biochemical
test-parameters: mean ± SD of triplicate, racemic mixtures, NI = no inhibition at 100 µM
endpoint-name: IC50 (µM)

{"compound": "COC(=O)CC1ON=C(c2ccc(C(F)(F)F)cc2)NC1=O (centres unmarked)", "target": "MAO-B (Homo sapiens)", "numeric-value": 22.9}
{"compound": "COc1ccc(C2=NOC(C)C(=O)N2)cc1 (centres unmarked)", "target": "MAO-B (Homo sapiens)", "numeric-value": 20}
{"compound": "Cc1ccc(C2=NOC(C)C(=O)N2)s1 (centres unmarked)", "target": "MAO-B (Homo sapiens)", "numeric-value": 22.3}
{"compound": "Cc1ccc(C2=NOCC(=O)N2)s1", "target": "MAO-B (Homo sapiens)", "numeric-value": 16.6}
{"compound": "Cc1ccc(C2=NOCC(=O)N2)cc1", "target": "MAO-B (Homo sapiens)", "numeric-value": 37.2}

[A] CC1ON=C(c2ccc(Br)cc2)NC1=O (centres unmarked)
[B] O=C1CON=C(c2ccc(Br)cc2)N1
Returns: the label, A or B , whose recorded IC50 is the lower number. Answer = label.
B
(B: 13.6 µM, A: 27.1 µM)
